Each recorded value in this set is attributed to patent US8247211B2.

System: Streptococcus sp.
Assay: In vitro antibacterial evaluation: minimum inhibitory concentration (MIC), broth dilution method
Type: cell-based
Conditions: Streptococcus agalactiae (GC 4564); 18 hours at 35° C.
Assay Metric: MIC Streptococcus agalactiae (GC 4564)

Sample records with MIC Streptococcus agalactiae (GC 4564):
Compound: CC(C1CCCCC1)C1NC(=O)CNC(=O)C(CO)NC(=O)C(C(O)C2CNC(=N)N2C2OC(CO)C(O)C(O)C2O)NC(=O)C(C(O)C2CNC(=N)N2)NC(=O)C(Cc2ccc(OC3OC(CO)C(OC4OC5COC6(OC5C(O)C4O)C4CC5CC(C4)CC6C5)C(O)C3O)cc2)NC1=O (stereo not drawn)
MIC Streptococcus agalactiae (GC 4564): <0.12 µg/mL
//
Compound: N=C1NCC(C(O)C2NC(=O)C(Cc3ccc(OC4OC(CO)C(OC5OC6COC(Cc7ccccc7)OC6C(O)C5O)C(O)C4O)cc3)NC(=O)C(CC3CCCCC3)NC(=O)CNC(=O)C(CO)NC(=O)C(C(O)C3CNC(=N)N3C3OC(CO)C(O)C(O)C3O)NC2=O)N1 (stereo not drawn)
MIC Streptococcus agalactiae (GC 4564): 0.12 µg/mL

Data request: Could you please provide reported MIC Streptococcus agalactiae (GC 4564) for CC(c1ccccc1)C1NC(=O)CNC(=O)C(CO)NC(=O)C(C(O)C2CNC(=N)N2C2OC(CO)C(O)C(O)C2O)NC(=O)C(C(O)C2CNC(=N)N2)NC(=O)C(Cc2ccc(OC3OC(CO)C(OC4OC5COC(c6ccc(C(=O)c7cc(I)c(I)c(I)c7)cc6)OC5C(O)C4O)C(O)C3O)cc2)NC1=O (stereo not drawn) ? Thanks!
Data returned: <0.12 µg/mL

* * *

Test system: Enterococcus sp.
Test: In vitro antibacterial evaluation: minimum inhibitory concentration (MIC), broth dilution method
Assay type: cell-based
Details: broth dilution, inoculum 5×10^5 CFU/mL, 18 hours at 35° C.
Assay Metric: MIC Enterococcus faecalis (GC 2242)

Data request: Could you please provide reported MIC Enterococcus faecalis (GC 2242) for COc1ccc2cc(COCC3OC(OC4C(CO)OC(Oc5ccc(CC6NC(=O)C(C(C)c7ccccc7)NC(=O)CNC(=O)C(CO)NC(=O)C(C(O)C7CNC(=N)N7C7OC(CO)C(O)C(O)C7O)NC(=O)C(C(O)C7CNC(=N)N7)NC6=O)cc5)C(O)C4O)C(O)C(O)C3O)ccc2c1 (stereo not shown) ? Thanks!
Data returned: 8 µg/mL

* * *

System: Staphylococcus sp.
Assay: In vitro antibacterial evaluation: minimum inhibitory concentration (MIC), broth dilution method
Assay type: cell-based
Conditions: Staphylococcus aureus-SMITH (GC 4543); 18 hours at 35° C.
From the text: […]
Assay Metric: MIC Staphylococcus aureus-SMITH (GC 4543) (µg/mL)
Please respond with the number in µg/mL and leave the unit unwritten.

Sample records with MIC Staphylococcus aureus-SMITH (GC 4543):
Compound: COc1ccc(COCC2OC(OC3C(CO)OC(Oc4ccc(CC5NC(=O)C(C(C)c6ccccc6)NC(=O)CNC(=O)C(CO)NC(=O)C(C(O)C6CNC(=N)N6C6OC(CO)C(O)C(O)C6O)NC(=O)C(C(O)C6CNC(=N)N6)NC5=O)cc4)C(O)C3O)C(O)C(O)C2O)cc1 (stereo not shown) [Example 232]
Experimental Value: 4
//
Compound: CC(c1ccccc1)C1NC(=O)CNC(=O)C(CO)NC(=O)C(C(O)C2CNC(=N)N2C2OC(CO)C(O)C(O)C2O)NC(=O)C(C(O)C2CNC(=N)N2)NC(=O)C(Cc2ccc(OC3OC(CO)C(OC4OC(COCC=Cc5ccc(N(C)C)cc5)C(O)C(O)C4O)C(O)C3O)cc2)NC1=O (stereo not shown) [Example 243]
Experimental Value: 64
//
Compound: CC(C)CC(=O)OC1C(O)C(CO)OC(OC2C(CO)OC(Oc3ccc(CC4NC(=O)C(C(C)c5cccs5)NC(=O)CNC(=O)C(CO)NC(=O)C(C(O)C5CNC(=N)N5C5OC(CO)C(O)C(O)C5O)NC(=O)C(C(O)C5CNC(=N)N5)NC4=O)cc3)C(O)C2O)C1O (stereo not shown) [Example 265b]
Experimental Value: 8

Data request: Could you please provide reported MIC Staphylococcus aureus-SMITH (GC 4543) for CC(C)CC(=O)OC1C(OC2C(CO)OC(Oc3ccc(CC4NC(=O)C(C(C)c5cccc(F)c5)NC(=O)CNC(=O)C(CO)NC(=O)C(C(O)C5CNC(=N)N5C5OC(CO)C(O)C(O)C5O)NC(=O)C(C(O)C5CNC(=N)N5)NC4=O)cc3)C(O)C2O)OC(CO)C(O)C1O (stereo not shown) [Example 264a] ? Thanks!
Data returned: 8
